# subject.of.test: EGFR (Homo sapiens (Human), UniProt P00533)
# Sequence (P00533 25-1210): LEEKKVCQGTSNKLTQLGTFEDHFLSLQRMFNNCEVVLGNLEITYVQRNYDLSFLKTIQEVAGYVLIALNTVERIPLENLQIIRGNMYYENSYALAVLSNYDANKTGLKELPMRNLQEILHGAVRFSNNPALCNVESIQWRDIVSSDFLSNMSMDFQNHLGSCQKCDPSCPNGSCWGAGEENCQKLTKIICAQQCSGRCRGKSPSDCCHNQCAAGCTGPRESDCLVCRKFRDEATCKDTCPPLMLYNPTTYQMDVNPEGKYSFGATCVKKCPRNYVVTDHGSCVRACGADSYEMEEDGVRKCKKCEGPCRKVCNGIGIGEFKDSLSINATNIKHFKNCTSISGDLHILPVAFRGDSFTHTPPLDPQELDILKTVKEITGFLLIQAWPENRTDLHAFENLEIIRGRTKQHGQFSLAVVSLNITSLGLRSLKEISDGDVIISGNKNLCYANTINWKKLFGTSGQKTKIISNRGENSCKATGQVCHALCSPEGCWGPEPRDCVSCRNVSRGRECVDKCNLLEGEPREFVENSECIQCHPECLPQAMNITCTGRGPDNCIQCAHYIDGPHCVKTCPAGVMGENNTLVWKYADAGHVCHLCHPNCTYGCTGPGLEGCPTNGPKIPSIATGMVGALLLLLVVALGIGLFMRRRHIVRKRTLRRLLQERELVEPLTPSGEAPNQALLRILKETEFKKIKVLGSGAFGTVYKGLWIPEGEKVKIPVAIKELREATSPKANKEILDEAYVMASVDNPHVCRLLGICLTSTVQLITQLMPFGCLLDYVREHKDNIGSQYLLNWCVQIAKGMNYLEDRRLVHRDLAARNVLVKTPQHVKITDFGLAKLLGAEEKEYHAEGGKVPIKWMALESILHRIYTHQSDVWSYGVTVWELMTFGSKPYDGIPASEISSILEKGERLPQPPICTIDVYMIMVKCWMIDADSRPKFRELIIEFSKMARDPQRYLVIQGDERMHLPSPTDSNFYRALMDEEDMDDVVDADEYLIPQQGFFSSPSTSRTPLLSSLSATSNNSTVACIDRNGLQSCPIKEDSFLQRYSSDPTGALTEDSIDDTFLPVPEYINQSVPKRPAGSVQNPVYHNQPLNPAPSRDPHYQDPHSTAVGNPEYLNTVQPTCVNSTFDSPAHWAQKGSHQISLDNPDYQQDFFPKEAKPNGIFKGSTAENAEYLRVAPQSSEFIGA
# assay.explanation: ErbB enzyme assay (CisBio HTRF KinEASE-TK), Assay 3
# Type: biochemical
assay.endpoint: pIC50
The scale used: pIC50 is minus the common logarithm of the concentration in molar units.

Examples from the recorded data:
compound=Cc1cc(Nc2ncnc3cnc(N(C)[C@H]4CCC[C@@H]4O)nc23)ccc1Oc1ccc2c(c1)ncn2C assay_endpoint=pIC50 reading=5.90
compound=CN(CC(C)(C)O)c1ncc2ncnc(Nc3ccc(Oc4ccn5ncnc5c4)c(Cl)c3)c2n1 assay_endpoint=pIC50 reading=5.33

Now examine the next entry.
query: Data request, read-out pIC50, for Cc1c(Oc2ccc3c(c2)ncn3C)ccc(Nc2ncnc3cnc(N4CCC[C@](C)(O)C4)nc23)c1F
result: 5.58

* * *

# subject.of.test: ErbB2 insYVMA (HER2-YVMA, SEQ ID NO: 2) (Homo sapiens, UniProt P04626, INS775YVMA/P1170A)
# Sequence (P04626 with tags, fused parts or gaps INS775YVMA/P1170A limits assumed): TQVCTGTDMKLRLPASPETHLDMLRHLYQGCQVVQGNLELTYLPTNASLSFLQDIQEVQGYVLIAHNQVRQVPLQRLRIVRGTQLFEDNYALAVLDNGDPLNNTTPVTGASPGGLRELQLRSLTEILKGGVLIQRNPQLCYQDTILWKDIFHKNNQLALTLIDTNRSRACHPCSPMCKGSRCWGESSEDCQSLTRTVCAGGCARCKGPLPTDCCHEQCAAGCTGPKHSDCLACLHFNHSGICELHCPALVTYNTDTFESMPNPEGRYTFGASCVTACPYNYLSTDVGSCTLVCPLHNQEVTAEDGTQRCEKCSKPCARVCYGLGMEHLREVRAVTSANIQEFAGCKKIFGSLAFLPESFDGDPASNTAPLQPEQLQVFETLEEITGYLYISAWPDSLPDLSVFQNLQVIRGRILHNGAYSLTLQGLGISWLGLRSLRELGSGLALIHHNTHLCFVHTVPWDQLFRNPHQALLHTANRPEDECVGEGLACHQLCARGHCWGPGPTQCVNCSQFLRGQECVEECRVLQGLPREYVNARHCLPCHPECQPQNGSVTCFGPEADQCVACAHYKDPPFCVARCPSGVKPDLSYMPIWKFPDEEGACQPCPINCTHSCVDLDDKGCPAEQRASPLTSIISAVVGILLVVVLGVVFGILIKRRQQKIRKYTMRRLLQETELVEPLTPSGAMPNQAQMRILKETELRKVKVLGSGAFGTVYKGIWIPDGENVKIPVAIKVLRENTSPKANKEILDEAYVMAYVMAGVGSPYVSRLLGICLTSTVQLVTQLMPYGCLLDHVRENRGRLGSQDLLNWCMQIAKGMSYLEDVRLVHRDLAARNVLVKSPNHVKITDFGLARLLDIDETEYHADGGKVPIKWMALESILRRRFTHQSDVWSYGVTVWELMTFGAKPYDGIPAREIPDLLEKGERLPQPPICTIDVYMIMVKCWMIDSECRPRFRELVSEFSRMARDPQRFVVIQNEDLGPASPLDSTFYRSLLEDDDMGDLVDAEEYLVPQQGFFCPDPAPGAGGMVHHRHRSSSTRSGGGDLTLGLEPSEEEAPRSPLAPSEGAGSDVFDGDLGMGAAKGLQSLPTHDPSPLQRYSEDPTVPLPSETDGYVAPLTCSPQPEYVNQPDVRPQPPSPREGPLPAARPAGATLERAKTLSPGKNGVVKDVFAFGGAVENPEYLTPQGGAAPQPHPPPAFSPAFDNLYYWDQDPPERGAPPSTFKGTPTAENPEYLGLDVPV
# assay.explanation: biochemical
# test.context: ErbB2 insYVMA enzyme assay; read-out: Assay 1 IC50
Output t for records whose IC50 is lower than 20 nM, f for records at or above 20 nM.

Some entries whose results are on file:
compound=N#C[C@H]1CCN(c2ncc3ncnc(Nc4ccc(Oc5ccn6ncnc6c5)c(Cl)c4)c3n2)C1 category_label=t
compound=Cc1cc(Nc2ncnc3cnc(N4C[C@@H](O)C(F)(F)C4)nc23)ccc1Oc1ccc2c(c1)ncn2C category_label=f
compound=Cc1cc(Nc2ncnc3cnc(S(C)(=O)=O)nc23)ccc1Oc1ccc2c(c1)ncn2C category_label=t
compound=C[C@@H]1COCCN1c1ncc2ncnc(Nc3ccc(Oc4ccc5c(c4)ncn5C)c(Cl)c3)c2n1 category_label=f
compound=CON1CCN(c2ncc3ncnc(Nc4ccc(Oc5ccn6ncnc6c5)c(C)c4)c3n2)CC1 category_label=f

query: Consider Clc1cc(Nc2ncnc3cnc(N4CC[C@@H]5COC[C@H]54)nc23)ccc1Oc1ccn2ncnc2c1 . Does its IC50 lie strictly below 20 nM?
result: t

query: Does the reported IC50 of the following compound sit strictly below 20 nM? CN(c1ncc2ncnc(Nc3ccc(Oc4ccn5ncnc5c4)c(Cl)c3)c2n1)C1COC1
result: t

query: Would you kindly verify if IC50 of Cc1cc(Nc2ncnc3cnc(N[C@@H]4CCOC4)nc23)ccc1Oc1ccc2c(c1)ncn2C is strictly less than 20 nM?
result: t

query: Say whether its IC50 is strictly beneath 20 nM. Entry: Cn1cnc2cc(Oc3ccc(Nc4ncnc5cnc(N6CCC7COCC76)nc45)cc3Cl)ccc21 (stereo not shown)
result: f

query: Criterion: IC50 strictly below 20 nM. Is it met by Cc1cc(Nc2ncnc3cnc(N4CCCO4)nc23)ccc1Oc1cc(F)c2c(c1)ncn2C ?
result: f

query: For CCN(CC(C)(C)O)c1ncc2ncnc(Nc3ccc(Oc4ccc5c(c4)ncn5C)c(C)c3)c2n1 , is the recorded IC50 below the cut-off of 20 nM?
result: f

query: For Cc1cc(Nc2ncnc3cnc(N4CCC(CC#N)C4)nc23)ccc1Oc1ccc2c(c1)ncn2C (stereo not shown) , is the recorded IC50 below the cut-off of 20 nM?
result: t

query: Is the reported IC50 for Cc1cc(Nc2ncnc3cnc(N[C@H]4CNC[C@H]4F)nc23)ccc1Oc1ccc2c(c1)ncn2C strictly below 20 nM?
result: t

query: Threshold test, IC50 < 20 nM: Cc1cc(Nc2ncnc3cnc(N4CC[C@@H]4C(C)(C)O)nc23)ccc1Oc1ccn2ncnc2c1
result: f

query: For Cc1cc(Nc2ncnc3cnc(N4CC[C@@H](C(C)(C)O)C4)nc23)ccc1Oc1ccn2ncnc2c1 , is the recorded IC50 below the cut-off of 20 nM?
result: t
